These data points were gathered from patent US20240368133A1.

experimental-system: human AT2R fused to Cb23 (Homo sapiens, UniProt P50052)
Sequence (P50052 whole entry, looked up, the tested form may be a part): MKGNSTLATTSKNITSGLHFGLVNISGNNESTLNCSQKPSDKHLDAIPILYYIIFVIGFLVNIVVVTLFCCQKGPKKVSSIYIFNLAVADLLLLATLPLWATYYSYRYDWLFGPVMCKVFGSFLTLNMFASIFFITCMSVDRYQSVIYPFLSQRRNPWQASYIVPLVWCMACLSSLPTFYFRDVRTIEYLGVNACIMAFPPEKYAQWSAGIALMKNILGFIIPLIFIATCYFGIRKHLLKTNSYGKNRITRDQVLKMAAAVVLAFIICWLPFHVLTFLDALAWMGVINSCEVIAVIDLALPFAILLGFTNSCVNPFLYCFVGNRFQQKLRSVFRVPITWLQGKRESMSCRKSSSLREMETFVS
assay-details: Radioligand binding assay, displacement of 125I-[Sar1, Ile8]-Angiotensin II, hAT2R Cb23
run-parameters: displacement of 125I-[Sar1, Ile8]-Angiotensin II, human AT2R fused to Cb23, HEK-293 cell membrane preparations; read-out: Binding affinity on hAT2R_Cb23 IC50
Experimental: All synthesized ligands were evaluated in a radioligand assay by displacing ^125I-[Sar1, Ile8]-Angiotensin II (Perkin Elmer, NEX248050UC) from human AT2R fused to Cb23 or human/rodent/cynomolgus/minipig/dog WT AT2R in HEK-293 cells membrane preparations, using C21 (Vicore Pharma) and Angiotensin II (endogenous ligand) as reference. The affinity was determined using an eight-point dose-response curve, each point performed in duplicates. […]
Catalogue of compounds with associated pIC50
Just the number, please; pIC50 means minus log10 of the concentration in mol/L.

compound: Cc1cc(CN2CCN(c3cc(CC(C)C)ccc3-c3nn[nH]n3)CC2)n(C)n1 [Compound A-104]
pIC50: 5.22

# pIC50 lookup, item COc1ccnc(CN2CCN(c3cc(CC(C)C)cc(F)c3-c3nn[nH]n3)CC2)c1 [Compound A-199]
6.75

Reported pIC50, compound CCc1cc(CC(C)C)cc(N2CCN(Cc3cccnn3)CC2)c1-c1nn[nH]n1 [Compound A-168] : ____
7.75

Would you mind telling me what pIC50 value was observed for CC(C)Cc1ccc(-c2nn[nH]n2)c(N2CCN(Cc3ncco3)CC2)c1 [Compound A-98] ?
5.24

Which pIC50 value is on record for CC(C)Cc1cc(N2CCN(Cc3nc4ccccc4s3)CC2)c(-c2nn[nH]n2)cc1F [Compound A-133] ?
5.92

Recorded pIC50 for CC(C)Cc1ccc(-c2nn[nH]n2)c(N2CCN(Cc3ccn(C)n3)CC2)c1 [Compound A-110] , please?
4.75

Need pIC50 of CCOc1cc(-c2nn[nH]n2)c(N2CCN(Cc3cccnn3)CC2)cc1OC(C)C [Compound A-162] , thanks.
4.68

Can you share its pIC50? I mean this compound: Cc1ncc(CN2CCN(c3cc(CC(C)C)ccc3-c3nn[nH]n3)CC2)cn1 [Compound A-103]
4.91
